Target: human TRPV1 (Homo sapiens (Human))
Sequence (Q8NER1 whole entry, looked up): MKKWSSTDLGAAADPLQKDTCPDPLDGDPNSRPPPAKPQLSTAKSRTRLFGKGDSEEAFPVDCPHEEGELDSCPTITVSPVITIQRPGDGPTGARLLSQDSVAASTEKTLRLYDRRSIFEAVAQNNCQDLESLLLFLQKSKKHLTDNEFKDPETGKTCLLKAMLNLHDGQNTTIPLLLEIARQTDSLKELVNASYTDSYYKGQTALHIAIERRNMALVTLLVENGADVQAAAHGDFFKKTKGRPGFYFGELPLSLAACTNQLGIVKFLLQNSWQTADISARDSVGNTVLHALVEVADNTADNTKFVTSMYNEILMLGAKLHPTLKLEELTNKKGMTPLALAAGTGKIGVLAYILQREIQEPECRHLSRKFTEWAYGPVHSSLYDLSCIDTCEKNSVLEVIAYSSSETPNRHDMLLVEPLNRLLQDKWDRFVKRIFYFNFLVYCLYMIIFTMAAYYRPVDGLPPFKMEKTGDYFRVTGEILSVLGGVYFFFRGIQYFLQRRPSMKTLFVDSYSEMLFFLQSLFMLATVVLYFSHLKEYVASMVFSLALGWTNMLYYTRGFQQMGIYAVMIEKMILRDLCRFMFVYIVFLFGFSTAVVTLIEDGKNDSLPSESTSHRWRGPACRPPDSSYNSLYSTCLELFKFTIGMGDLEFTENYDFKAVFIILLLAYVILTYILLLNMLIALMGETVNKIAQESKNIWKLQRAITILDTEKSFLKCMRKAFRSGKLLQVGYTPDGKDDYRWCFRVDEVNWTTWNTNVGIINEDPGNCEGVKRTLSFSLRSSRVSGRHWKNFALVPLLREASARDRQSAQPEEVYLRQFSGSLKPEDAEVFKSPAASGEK
Test: pH-based assay, Protocol 2 (hpH-CHO)
Type: cell-based
Settings: prepared and evaluated according to the methods described in WO2005/030766; read-out: TRPV1 IC50 Potency, Human pH CHO (hpH-CHO)
Each entry below lists one item and its recorded IC50 value.
readout_kind: IC50

compound | result
Cc1cccnc1-c1ccc(C(=O)Nc2nc3ccc(Cl)cc3s2)cc1 [A, reference compound] | > 25 µM
Cc1cccnc1-c1ccc(C(=O)Nc2nc3ccc(F)cc3s2)cc1 [Compound B, reference compound] | > 25 µM

====

Target: UniProt:Q8NER1
Assay: Capsaicin-based assay, Protocol 2 (hCAP-CHO)
Type: cell-based
pIC50: −log10 of the molar value.

compound | qual | pIC50
Cc1cccnc1-c1ccc(C(=O)Nc2nc3ccc(Cl)cc3s2)cc1 [A, reference compound] | < | 4.60
Cc1cccnc1-c1ccc(C(=O)Nc2nc3ccc(F)cc3s2)cc1 [Compound B, reference compound] | = | 5.94

Cited source: patent US9394293B2
